Test system: PCSK9 mRNA
Test: PCSK9 siRNA screening in HepG2 cells (lipofectamine 2000 transfection, PCSK9 mRNA by Quantigene, normalized to GAP-DH)
Format: cell-based, human
Conditions: 30 nM siRNA
In the oligonucleotide strings, read from the 5' end, every base follows the letter of its sugar. An asterisk marks phosphorothioate; unmarked linkages are phosphodiester. Other units and linkages are bracketed, terminal groups are in braces. A string of capitals states the bases alone. d = 2'-deoxy (DNA); m = 2'-O-methyl; r = 2'-OH (RNA)
quantity kind: Mean percent remaining mRNA transcript at siRNA concentration/in cell type 30 nM/HepG2 (%)
Give bare numbers, in %.

Below, each entry is followed by its recorded Mean percent remaining mRNA transcript at siRNA concentration/in cell type 30 nM/HepG2 result.
Query (substance): AD-9526: PCSK9 siRNA (sense rUrCrCrCrArGrCrCrArGrGrArUrUrCrCrGrCrGdT*dT; antisense rCrGrCrGrGrArArUrCrCrUrGrGrCrUrGrGrGrAdT*dT) ; field requested: Mean percent remaining mRNA transcript at siRNA concentration/in cell type 30 nM/HepG2
89

# get_value(readout='Mean percent remaining mRNA transcript at siRNA concentration/in cell type 30 nM/HepG2', item= AD-9718: PCSK9 siRNA (sense mCmCmUrArGrAmCrAmCmCrArGmCrAmUrAmCrArGdT*dT; antisense rCrUrGmUrArUrGrCrUrGrGrUrGrUrCmUrArGrGdT*dT) )
78

Which value of Mean percent remaining mRNA transcript at siRNA concentration/in cell type 30 nM/HepG2 has been reported for AD-9673: PCSK9 siRNA (sense mCmUmCrGmCrArGmUmCrArGrArGmCrGmCrAmCmUdT*dT; antisense rArGrUrGrCrGrCrUrCrUrGrArCrUrGrCrGrArGdT*dT) in the records?
56

Value lookup for Mean percent remaining mRNA transcript at siRNA concentration/in cell type 30 nM/HepG2; key = AD-9725: PCSK9 siRNA (sense mUmUmCmUrGrGrAmUrGrGmCrAmUmCmUrArGmCmCdT*dT; antisense rGrGrCmUrArGrArUrGrCmCrArUrCmCrArGrArAdT*dT)
38

Fill in: Mean percent remaining mRNA transcript at siRNA concentration/in cell type 30 nM/HepG2 of AD-9576: PCSK9 siRNA (sense rGrCrArGrArGrArCrUrGrArUrCrCrArCrUrUrCdT*dT; antisense rGrArArGrUrGrGrArUrCrArGrUrCrUrCrUrGrCdT*dT) is ___
47

Give Mean percent remaining mRNA transcript at siRNA concentration/in cell type 30 nM/HepG2 for all substances that follow.
1. AD-9549: PCSK9 siRNA (sense rGrGrGrCrCrCrArCrArArCrGrCrUrUrUrUrGrGdT*dT; antisense rCrCrArArArArGrCrGrUrUrGrUrGrGrGrCrCrCdT*dT)
2. AD-9516: PCSK9 siRNA (sense rUrGrUrArUrCrUrCrCrUrArGrArCrArCrCrArGdT*dT; antisense rCrUrGrGrUrGrUrCrUrArGrGrArGrArUrArCrAdT*dT)
3. AD-9701: PCSK9 siRNA (sense mCmCrGmCmUrGmCmCrGrGmCrArAmCmUmUmCmCrGdT*dT; antisense rCrGrGrArArGrUrUrGrCrCrGrGmCrArGrCrGrGdT*dT)
4. AD-9603: PCSK9 siRNA (sense rUrUrUrCrUrGrGrArUrGrGrCrArUrCrUrArGrCdT*dT; antisense rGrCrUrArGrArUrGrCrCrArUrCrCrArGrArArAdT*dT)

[50, 94, 100, 123]

Batch lookup, Mean percent remaining mRNA transcript at siRNA concentration/in cell type 30 nM/HepG2 per entry.
1. AD-9597: PCSK9 siRNA (sense rArGrCrCrArArGrCrCrUrCrUrUrCrUrUrArCrUdT*dT; antisense rArGrUrArArGrArArGrArGrGrCrUrUrGrGrCrUdT*dT)
2. AD-9741: PCSK9 siRNA (sense mUmUmCmCrGrGrGrAmCrGrAmUrGmCmCmUrGmCmCdT*dT; antisense rGrGmCrArGrGmCrArUrCrGrUrCrCrCrGrGrArAdT*dT)
3. AD-9521: PCSK9 siRNA (sense rCrUrCrCrUrArGrArCrArCrCrArGrCrArUrArCdT*dT; antisense rGrUrArUrGrCrUrGrGrUrGrUrCrUrArGrGrArGdT*dT)
4. AD-9551: PCSK9 siRNA (sense UGGCGGGUGGGUACAGCCGTsT; antisense CGGCUGUACCCACCCGCCATsT; as printed in the source, key not given here)
5. AD-9758: PCSK9 siRNA (sense mCrArAmCmUmUmUrGrGmCmCrGmCmUrGmUrGmUrGdT*dT; antisense mCrAmCrAmCrArGrCrGrGrCmCrArArArGrUrUrGdT*dT)
6. AD-9668: PCSK9 siRNA (sense rAmUmCrGrArGrGrGmCrArGrGrGmUmCrAmUrGrGdT*dT; antisense rCmCrArUrGrArCrCrCrUrGrCrCrCrUrCrGrArUdT*dT)

23
130
50
91
96
92

Go through the list and state Mean percent remaining mRNA transcript at siRNA concentration/in cell type 30 nM/HepG2 for each entry.
1. AD-9734: PCSK9 siRNA (sense mUrGmCmUrArGmCmCmUmUrGmCrGmUmUmCmCrGrAdT*dT; antisense rUrCrGrGrArArCrGmCrArArGrGrCmUrArGmCrAdT*dT)
2. AD-9580: PCSK9 siRNA (sense rCrCrUrGrCrGrCrGrUrGrCrUrCrArArCrUrGrCdT*dT; antisense rGrCrArGrUrUrGrArGrCrArCrGrCrGrCrArGrGdT*dT)
3. AD-9667: PCSK9 siRNA (sense rGrGmUrGrArGrGrGmUrGmUmCmUrAmCrGmCmCrAdT*dT; antisense rUrGrGrCrGmUrArGrAmCrArCrCrCrUmCrArCrCdT*dT)
4. AD-9736: PCSK9 siRNA which targets only human and monkey PCSK9 message; SEQ ID NO:1517/1518 (chain 1 AGGuGuAucuccuAGAcAcTsT; chain 2 GUGUCuAGGAGAuAcACCUTsT; as printed in the source, key not given here)
5. AD-9721: PCSK9 siRNA (sense mCmUrGrArGrGrAmCmCrArGmCrGrGrGmUrAmCmUdT*dT; antisense rArGmUrArCrCrCrGrCrUrGrGrUrCrCrUmCrArGdT*dT)

91
112
73
22
87
